# Test system: C. elegans
# condition: Table S2, C. elegans SS assay, 110 μM, 0 h, averages of 4 data points
// map Percentage of motility inhibition 0 h to label using group 1: < 2%; group 2: ≥ 2% and < 20%; group 3: ≥ 20%

INPUT: # bin lookup: classify OC[C@@H](O)[C@@H](O)[C@H](O)[C@H](O)CO (racemic) by its Percentage of motility inhibition 0 h
OUTPUT: group 1

INPUT: # bin lookup: classify CCN1C[C@]2(C)CC[C@H](OC)C34C5C[C@@H]6CC[C@@](O)(C5C(=O)O6)C(C13)[C@@H](OC(=O)c1ccccc1)[C@@H]42 by its Percentage of motility inhibition 0 h
OUTPUT: group 2

INPUT: # bin lookup: classify COc1ccc(C[C@H](N)C(=O)N[C@H]2[C@@H](O)[C@H](n3cnc4c(N(C)C)ncnc43)O[C@@H]2CO)cc1.Cl.Cl [Puromycin (D ihydrochloride)] by its Percentage of motility inhibition 0 h
OUTPUT: group 2

INPUT: # bin lookup: classify C[C@H](CCC(=O)[O-])[C@H]1CC[C@H]2[C@@H]3[C@H](O)C[C@@H]4C[C@H](O)CC[C@]4(C)[C@H]3C[C@H](O)[C@]12C.[Na+] [Cholic acid (sodium)] by its Percentage of motility inhibition 0 h
OUTPUT: group 1

INPUT: # bin lookup: classify NC[C@H]1O[C@H](O[C@H]2[C@H](O)[C@@H](O[C@H]3O[C@H](CO)[C@@H](O)[C@H](N)[C@H]3O)[C@H](N)C[C@@H]2N)[C@H](O)[C@@H](O)[C@@H]1O.O=S(=O)(O)O [Kanamycin (sulfate)] by its Percentage of motility inhibition 0 h
OUTPUT: group 3

INPUT: # bin lookup: classify CC(C)[C@]12O[C@H]1[C@@H]1O[C@@]13[C@@]1(C)CCC4=C(COC4=O)[C@@H]1C[C@@H]1O[C@@]13C2=O [Triptonide] by its Percentage of motility inhibition 0 h
OUTPUT: group 2

INPUT: # bin lookup: classify C[N+](C)(C)CCO.[Cl-] [Choline (chloride)] by its Percentage of motility inhibition 0 h
OUTPUT: group 3

INPUT: # bin lookup: classify C[C@]1(O)C[C@@H](O)[C@@H]2C(C(=O)O)=CO[C@@H](O[C@@H]3O[C@H](CO)[C@@H](O)[C@H](O)[C@H]3O)[C@@H]21 [Shanziside] by its Percentage of motility inhibition 0 h
OUTPUT: group 1

INPUT: # bin lookup: classify CN1CC[C@]23c4ccccc4N[C@H]1[C@]21CCN(C)[C@H]3Nc2ccccc21 by its Percentage of motility inhibition 0 h
OUTPUT: group 1

INPUT: # bin lookup: classify CC1(C)S[C@@H]2[C@H](NC(=O)C(C(=O)[O-])c3ccccc3)C(=O)N2[C@H]1C(=O)[O-].[Na+].[Na+] (stereo partly shown) [Carbenicillin (disodium)] by its Percentage of motility inhibition 0 h
OUTPUT: group 3

INPUT: # bin lookup: classify C[C@H]1O[C@@H](O[C@H]2CC[C@@]3(C)[C@@H](CC[C@]4(C)[C@@H]3C=CC3=C5CC(C)(C)CC[C@]5(CO)[C@H](O)C[C@]34C)[C@]2(C)CO)[C@H](O)[C@@H](O[C@@H]2O[C@H](CO)[C@@H](O)[C@H](O)[C@H]2O)[C@H]1O by its Percentage of motility inhibition 0 h
OUTPUT: group 2

INPUT: # bin lookup: classify CC[C@@H](C(=O)[C@@H](C)[C@@H](O)[C@H](C)CCc1ccc(C)c(O)c1C(=O)[O-])[C@H]1O[C@](CC)([C@H]2CC[C@](O)(CC)[C@H](C)O2)C[C@@H]1C.[Na+] [Lasalocid (sodium)] by its Percentage of motility inhibition 0 h
OUTPUT: group 2

INPUT: # bin lookup: classify Clc1ccc(C(Cn2ccnc2)OCc2csc3c(Cl)cccc23)c(Cl)c1.O=[N+]([O-])O (stereo not shown) [Sertaconazole (nitrate)] by its Percentage of motility inhibition 0 h
OUTPUT: group 3

INPUT: # bin lookup: classify CN1C[C@@H]2C[C@H](C1)c1cccc(=O)n1C2 by its Percentage of motility inhibition 0 h
OUTPUT: group 1

INPUT: # bin lookup: classify CC1(C)CC[C@]2(C(=O)O[C@@H]3O[C@H](CO[C@@H]4O[C@H](CO)[C@@H](O)[C@H](O)[C@H]4O)[C@@H](O)[C@H](O)[C@H]3O)CC[C@]3(C)C(=CC[C@@H]4[C@@]5(C)CC[C@H](O[C@@H]6OC[C@H](O)[C@H](O)[C@H]6O)[C@@](C)(CO)[C@@H]5CC[C@]43C)[C@@H]2C1 by its Percentage of motility inhibition 0 h
OUTPUT: group 1

INPUT: # bin lookup: classify C[C@H](CC[C@@H](O[C@@H]1O[C@H](CO[C@@H]2O[C@H](CO)[C@@H](O)[C@H](O)[C@H]2O)[C@@H](O)[C@H](O)[C@H]1O)C(C)(C)O)[C@H]1CC[C@@]2(C)[C@@H]3CC=C4[C@@H](CC[C@H](O[C@@H]5O[C@H](CO)[C@@H](O)[C@H](O)[C@H]5O)C4(C)C)[C@]3(C)[C@H](O)C[C@]12C [Mogroside III] by its Percentage of motility inhibition 0 h
OUTPUT: group 2

INPUT: # bin lookup: classify O.O=C(O)c1cc(O)c(O)c(O)c1 [Gallic acid (hydrate)] by its Percentage of motility inhibition 0 h
OUTPUT: group 2

INPUT: # bin lookup: classify COc1cc(O)c(CC=C(C)C)c2c1C(=O)C[C@@H](c1ccc(O)cc1)O2 by its Percentage of motility inhibition 0 h
OUTPUT: group 1

INPUT: # bin lookup: classify COc1cc(OC)c(CCC(=O)c2ccc(O)cc2)c(OC)c1 by its Percentage of motility inhibition 0 h
OUTPUT: group 2

INPUT: # bin lookup: classify [N-]=[N+]=NCc1cccc(/C(O)=C/C(=O)C(=O)O)c1 by its Percentage of motility inhibition 0 h
OUTPUT: group 3
